Measurement record for Factor XIa (Homo sapiens, UniProt P03951); quantity recorded: IC50.
outcome measure: IC50 (nM)

Examples with their reported IC50 follow.
CS(=O)(=O)NC(=O)c1ccc(-c2cnn(C(CC3CC3)c3ccc(-c4cc(Cl)ccc4-n4cnnn4)c[n+]3[O-])c2)cc1 (stereo not shown)    3.1
Nc1ccc(-c2cnn(C(CC3CC3)c3ccc(-c4cc(Cl)ccc4-n4cnnn4)c[n+]3[O-])c2)c(Cl)n1 (stereo not shown) [Example P19]    3.4
O=C(O)c1ccc(-c2cnn(C(CC3CC3)c3ccc(-c4c(-n5cnnn5)ccc(Cl)c4F)c[n+]3[O-])c2)cc1 (stereo not shown)    0.29
O=C(O)c1cccc(-c2cnn(C(CC3CC3)c3ccc(-c4cc(Cl)ccc4-n4cnnn4)c[n+]3[O-])c2)c1 (stereo not shown)    9.4

1. O=C(O)c1ccc(-c2cnn(C(CC3CC3)c3ccc(-c4cc(Cl)ccc4-n4cc(Cl)nn4)c[n+]3[O-])c2)cc1 (stereo not shown)
2. COCCC(c1ccc(-c2c(-n3cnnn3)ccc(Cl)c2F)c[n+]1[O-])n1cc(-c2ccc(NC(=O)OC)cc2)cn1 (racemic)
3. CN1Cc2cc(-c3cnn(C(CC4CC4)c4ccc(-c5cc(Cl)ccc5-n5cnnn5)c[n+]4[O-])c3)ccc2C1=O (stereo not shown)
In this exercise, place the 3 molecules in ascending sequence of their recorded IC50. Output spec: labels arranged per the requested ranking. 2, 1, 3
(2: 3.2 nM, 1: 9.9 nM, 3: 71.7 nM)

* * *

Molecular target: human plasma kallikrein (Homo sapiens)
Experiment: Kallikrein inhibition FLINT assay with quenched AMC peptide substrate Z-Gly-Pro-Arg-AMC (end point EP or kinetic KIN reads)
Assay type: biochemical
Details: kinetic reads at 5 min intervals over 30 min; read-out: Kallikrein (KIN) IC50
pIC50: −log10 of the molar value.
outcome measure: pIC50

[O-][n+]1cc(-c2c(-n3cnnn3)ccc(Cl)c2F)ccc1C(CC1CC1)n1cc(-c2ccn[nH]2)cn1 (stereo not drawn)    6.11
CN(CC(c1ccc(-c2c(-n3cnnn3)ccc(Cl)c2F)c[n+]1[O-])n1cc(-c2ccnc(C(F)(F)F)c2)cn1)C(=O)C1CC1 (single isomer, unassigned) [Example P425]    6.24
O=C(C1CC1CC(c1ccc(-c2c(-n3cnnn3)ccc(Cl)c2F)c[n+]1[O-])n1cc(-c2ccccc2)cn1)N1CCC(c2ccccc2)C1 (stereo not drawn)    6.00

I. N#Cc1cc(-c2cnn(C(CN3CCCC3=O)c3ccc(-c4c(-n5cnnn5)ccc(Cl)c4F)c[n+]3[O-])c2)cc[n+]1[O-] (stereo not drawn)
II. [O-][n+]1cc(-c2c(C(F)F)ccc(Cl)c2F)ccc1C(Cn1cc(F)cn1)n1cc(-c2ccnc(C(F)(F)F)c2)cn1 (single isomer, unassigned) [Example Q23]
III. O=C1CCCN1CC(c1ccc(-c2c(-n3cnnn3)ccc(Cl)c2F)c[n+]1[O-])n1cc(-c2ccnc(F)c2)cn1 (stereo not drawn)
IV. [O-][n+]1cc(-c2c(-n3cnnn3)ccc(Cl)c2F)ccc1C(Cn1cc(F)cn1)n1cc(-c2ccnc(F)c2)cn1 (stereo not drawn)
Hello, I need these entries ordered by pIC50, highest reading first. Thanks! # answer = labels listed in requested order III, IV, II, I
(III: 8.15, IV: 7.87, II: 7.09, I: 6.64)

1. [O-][n+]1cc(-c2c(-n3cnnn3)ccc(Cl)c2F)ccc1C(CCOC(F)F)n1cc(-c2cn(C(F)F)nn2)cn1 (single isomer, unassigned) [Example P660]
2. CN(CC(c1ccc(-c2c(-n3cnnn3)ccc(Cl)c2F)c[n+]1[O-])n1cc(-c2ccncc2)cn1)C(=O)CC(=O)N1CCCCC1 (stereo not drawn)
// max by pIC50 over [ 1 , 2 ] Indicate your choice by writing its label. 2
(2: 7.08, 1: 6.54)

A. NC(=O)C1CC1CC(c1ccc(-c2c(-n3cnnn3)ccc(Cl)c2F)c[n+]1[O-])n1cc(-c2ccc(N)nc2F)cn1 (single isomer, unassigned) [Example P341]
B. COCC(=O)Nc1ccc(-c2cnn(C(CC3CC3)c3ccc(-c4c(-n5cnnn5)ccc(Cl)c4F)c[n+]3[O-])c2)cc1 (stereo not drawn)
Identify the entry with the smaller pIC50: A or B . // return label of chosen record A
(A: 6.49, B: 6.72)

I. COCC[C@H](c1ccc(-c2c(-n3cc(Cl)nn3)ccc(Cl)c2F)c[n+]1[O-])n1cc(-c2c(F)cnn2C(F)F)cn1
II. COCCOC(=O)Nc1ccc(-c2cnn(C(CC3CC3)c3ccc(-c4c(-n5cnnn5)ccc(Cl)c4F)c[n+]3[O-])c2)cc1 (stereo not drawn)
Recorded pIC50 values differ for I and II ; which one is higher? Output the label that corresponds to your choice. II

* * *

Molecular target: human plasma kallikrein (Homo sapiens, UniProt P03952)
Sequence (P03952 391-638 limits assumed): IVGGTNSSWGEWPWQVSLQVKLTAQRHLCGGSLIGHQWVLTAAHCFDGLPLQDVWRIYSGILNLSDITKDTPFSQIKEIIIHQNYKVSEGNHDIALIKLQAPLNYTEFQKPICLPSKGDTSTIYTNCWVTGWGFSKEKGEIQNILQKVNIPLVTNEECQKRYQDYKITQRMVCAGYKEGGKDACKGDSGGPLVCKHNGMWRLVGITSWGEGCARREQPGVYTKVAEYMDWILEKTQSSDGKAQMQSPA
Sequence (P03952 20-390 partner limits assumed): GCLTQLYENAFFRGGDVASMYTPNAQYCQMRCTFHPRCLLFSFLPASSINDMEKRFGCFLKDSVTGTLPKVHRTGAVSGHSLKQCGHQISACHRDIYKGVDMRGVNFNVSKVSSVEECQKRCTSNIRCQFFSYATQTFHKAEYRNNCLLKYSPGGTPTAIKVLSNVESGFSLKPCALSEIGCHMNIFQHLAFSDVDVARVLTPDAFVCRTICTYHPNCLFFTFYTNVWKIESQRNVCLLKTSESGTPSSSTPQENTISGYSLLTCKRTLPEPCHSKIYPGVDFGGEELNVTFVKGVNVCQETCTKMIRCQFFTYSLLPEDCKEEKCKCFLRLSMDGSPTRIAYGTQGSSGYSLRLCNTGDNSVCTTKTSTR
Experiment: Kallikrein inhibition FLINT assay with quenched AMC peptide substrate Z-Gly-Pro-Arg-AMC (end point EP or kinetic KIN reads)
Assay type: biochemical
Conditions: kinetic reads at 5 min intervals over 30 min; read-out: Kallikrein (KIN) IC50
outcome measure: IC50 (nM)

COc1ccc(C2CC2CC(c2ccc(-c3cc(Cl)ccc3-n3cnnn3)c[n+]2[O-])n2cc(-c3ccc(C(=O)O)cc3)cn2)cc1 (centres unmarked) [Example P239]    180

I. Cn1cc(CC(c2ccc(-c3c(C(F)F)ccc(Cl)c3F)c[n+]2[O-])n2cc(-c3cnnn3C)cn2)cn1 (single isomer, unassigned) [Example Q42]
II. [O-][n+]1cc(-c2c(-n3cnnn3)ccc(Cl)c2F)ccc1C(CCOC(F)F)n1cc(-c2cn(C(F)F)nn2)cn1 (single isomer, unassigned) [Example P659]
III. Cc1nc(C(F)(F)F)sc1-c1cnn(C(CC2CC2)c2ccc(-c3c(-n4cnnn4)ccc(Cl)c3F)c[n+]2[O-])c1 (single isomer, unassigned) [Example P961]
IV. NC(=O)c1ccc(-c2cnn(C(Cc3ccn(C(F)F)n3)c3ccc(-c4c(-n5cc(Cl)nn5)ccc(Cl)c4F)c[n+]3[O-])c2)cc1F (single isomer, unassigned) [Example P893]
Rank entries according to their IC50, from the largest number down. Put the labels in the requested order and write them down. II, III, I, IV

* * *

Biological target: human plasma kallikrein (Homo sapiens)
Test: Kallikrein inhibition FLINT assay with quenched AMC peptide substrate Z-Gly-Pro-Arg-AMC (end point EP or kinetic KIN reads)
Assay type: biochemical
Conditions: kinetic reads at 5 min intervals over 30 min; read-out: Kallikrein (KIN) IC50
pIC50: −log10 of the molar value.
outcome measure: pIC50

1. [O-][n+]1cc(-c2c(-n3cnnn3)ccc(Cl)c2F)ccc1[C@@H](CCOC(F)F)n1cc(-c2cnnn2C(F)F)cn1
2. [O-][n+]1ccc(-c2cnn(C(Cc3ccc(F)cc3)c3ccc(-c4c(C(F)F)ccc(Cl)c4F)c[n+]3[O-])c2)cc1 (single isomer, unassigned)
3. [O-][n+]1cc(-c2c(-n3cc(Cl)nn3)ccc(Cl)c2F)ccc1C(Cn1cc(F)cn1)n1cc(-c2ccnc(C(F)(F)F)c2)cn1 (single isomer, unassigned) [Example P480]
Please list these compounds in decreasing order of pIC50. List labels; respect the requested ordering. 2, 1, 3
(2: 8.29, 1: 7.93, 3: 7.51)

* * *

Target: human plasma kallikrein (Homo sapiens, UniProt P03952)
Test: Kallikrein inhibition FLINT assay with quenched AMC peptide substrate Z-Gly-Pro-Arg-AMC (end point EP or kinetic KIN reads)
Assay type: biochemical
Settings: kinetic reads at 5 min intervals over 30 min; read-out: Kallikrein (KIN) IC50
pIC50: −log10 of the molar value.
outcome measure: pIC50

[O-][n+]1cc(-c2c(-n3cnnn3)ccc(Cl)c2F)ccc1C(CC1CC1)n1cc(-c2c[nH]nc2Cl)cn1 (stereo not drawn) [Example P938]    8.16
[O-][n+]1cc(-c2c(-n3cnnn3)ccc(Cl)c2F)ccc1C(Cn1cc2c(n1)COCC2)n1cc(-c2ccnc(C(F)(F)F)c2)cn1 (stereo not drawn) [Example P463]    8.19

* * *

Molecular target: human plasma kallikrein (Homo sapiens)
Experiment: Kallikrein inhibition FLINT assay with quenched AMC peptide substrate Z-Gly-Pro-Arg-AMC (end point EP or kinetic KIN reads)
Format: biochemical
Settings: kinetic reads at 5 min intervals over 30 min; read-out: Kallikrein (KIN) IC50
pIC50: −log10 of the molar value.
outcome measure: pIC50

Reference set (2 entries):
O=C(O)c1ccc(-c2cnn(C(Cc3ccn(C(F)F)n3)c3ccc(-c4c(-n5cc(C(F)(F)F)nn5)ccc(Cl)c4F)c[n+]3[O-])c2)cc1 (single isomer, unassigned)    8.66
Cc1ncn(-c2cnn(C(CCOC(F)F)c3ccc(-c4c(-n5cc(OC(F)F)nn5)ccc(Cl)c4F)c[n+]3[O-])c2)n1 (single isomer, unassigned)    6.23

1. Cc1cc(-c2cnn(C(Cn3cccn3)c3ccc(-c4c(-n5cnnn5)ccc(Cl)c4F)c[n+]3[O-])c2)ccn1 (stereo not drawn) [Example P310]
2. Cc1nccc(-c2cnn(C(CC3CC3)c3ccc(-c4c(-n5cnnn5)ccc(Cl)c4F)c[n+]3[O-])c2)n1 (stereo not drawn)
3. COCc1ccn(CC(c2ccc(-c3c(-n4cnnn4)ccc(Cl)c3F)c[n+]2[O-])n2cc(-c3ccnc(C(F)(F)F)c3)cn2)n1 (single isomer, unassigned) [Example P441]
4. NC(=O)C1CC1CC(c1ccc(-c2c(-n3cnnn3)ccc(Cl)c2F)c[n+]1[O-])n1cc(-c2ccc(N)nc2F)cn1 (single isomer, unassigned) [Example P338]
Order these by pIC50, descending, and give the full ranking. Form field (ranking): labels in requested order. 3, 1, 4, 2
